ASSAY NOTES: ACEA_ER_AUC_viability: ACEA Biosciences xCELLigence Real-Time Cell Analysis on Estrogen Receptor Agonism for Viability (AID 2283782);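 also: continuous compound exposure with impedance area under curve over 80 h; hit means loss of impedance signal meaning reduced cell growth or viability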
Inconclusive results are not listed. Calls of active or inactive are those of the source. The calls were made as follows: active = hit-call score of the fitted dose curve at least 0.9, where 1 is the maximum; inconclusive = response in the unintended direction; inactive = score below 0.9.
Outcome codes: active, inactive

- MOLECULE: "C=C(C)C(=O)OCC(CC)(COC(=O)C(=C)C)COC(=O)C(=C)C"
  CATEGORY LABEL: "inactive"
- MOLECULE: "Cc1ccc(N)c(S(=O)(=O)O)c1"
  CATEGORY LABEL: "inactive"
- MOLECULE: "O=C(O)CCCCCCCCCCCC(=O)O"
  CATEGORY LABEL: "active"
- MOLECULE: "CC1=CC[C@@]23C[C@@H]1C(C)(C)[C@@H]2CC[C@H]3C"
  CATEGORY LABEL: "active"
- MOLECULE: "CCCC(=O)OC(C)(C)Cc1ccccc1"
  CATEGORY LABEL: "inactive"
- MOLECULE: "CC=CC=CCOC(=O)C(C)C"
  CATEGORY LABEL: "active"
- MOLECULE: "CCCC(=O)OCCc1ccccc1"
  CATEGORY LABEL: "active"
- MOLECULE: "CN1C(=O)c2ccccc2C1=O"
  CATEGORY LABEL: "inactive"
- MOLECULE: "CCCCCCCCCCCCCCCC(=O)OC/C=C(C)/C=C/C=C(C)/C=C/C1=C(C)CCCC1(C)C"
  CATEGORY LABEL: "active"
- MOLECULE: "CCCCCCCCCC(C)C=O (configuration not stated)"
  CATEGORY LABEL: "inactive"
- MOLECULE: "CCOC(=O)c1ccc(N)cc1"
  CATEGORY LABEL: "inactive"
- MOLECULE: "Cc1ccc(OC(=O)c2ccccc2O)cc1"
  CATEGORY LABEL: "active"

* * *

ASSAY NOTES: ATG_MRE_CIS: Attagene CIS-FACTORIAL HepG2 Assay for human Metal Responsive Element (MRE) (AID 2282954)
PARTICULARS: HepG2 MRE cis-reporter transcription, Attagene multiplex; actives raise or lower the signal
Activity calls are given as the source filed them. The calls were made as follows: active = hit-call score of the fitted dose curve at least 0.9, where 1 is the maximum; inactive = score below 0.9.

- MOLECULE: "Cc1cccc(Nc2ccccc2)c1"
  AC50: "135 µM (active)"
- MOLECULE: "Cc1occc(=O)c1OC(=O)C(C)C"
  AC50: "inactive"
- MOLECULE: "Cc1ccc(S(=O)(=O)Oc2ccc(N=Nc3ccc(-c4ccc(N=Nc5c(O)ccc6cc(S(=O)(=O)O)cc(S(=O)(=O)O)c56)c(C)c4)cc3C)cc2)cc1"
  AC50: "inactive"
- MOLECULE: "Cc1cc(C)nc(NS(=O)(=O)c2ccc(N)cc2)n1"
  AC50: "inactive"
- MOLECULE: "CCCC(O)C(O)CO (stereo unspecified)"
  AC50: "inactive"
- MOLECULE: "O=C(O)c1ccc(O)cc1"
  AC50: "inactive"
- MOLECULE: "CCCC[P+](CCCC)(CCCC)CCCC"
  AC50: "inactive"
- MOLECULE: "CS(=O)(=O)OCCCCOS(C)(=O)=O"
  AC50: "inactive"
- MOLECULE: "CCOc1ccccc1O"
  AC50: "inactive"
- MOLECULE: "CCCCCCCCCC(=O)OC"
  AC50: "inactive"
- MOLECULE: "CCc1ccc(O)c(OC)c1"
  AC50: "inactive"
- MOLECULE: "NCc1ccco1"
  AC50: "inactive"
- MOLECULE: "C=C(C)C1CC=C(C)C(=O)C1 (stereo unspecified)"
  AC50: "inactive"
- MOLECULE: "CCC(C)c1cc([N+](=O)[O-])cc([N+](=O)[O-])c1OC(=O)OC(C)C (stereo unspecified)"
  AC50: "34.8 µM (active)"
- MOLECULE: "CCC1(C)NC(=O)NC1=O (stereo unspecified)"
  AC50: "inactive"
- MOLECULE: "CC(C)CCCCCCCCCCCCCCC(=O)O"
  AC50: "inactive"
- MOLECULE: "Clc1ccc(C(c2ccccc2Cl)C(Cl)Cl)cc1 (stereo unspecified)"
  AC50: "171 µM (active)"
- MOLECULE: "C[C@H]1O[C@@H](O[C@H]2[C@@H](O)C[C@H](O[C@H]3[C@@H](O)C[C@H](O[C@H]4CC[C@@]5(C)[C@H](CC[C@@H]6[C@@H]5C[C@@H](O)[C@]5(C)[C@@H](C7=CC(=O)OC7)CC[C@]65O)C4)O[C@@H]3C)O[C@@H]2C)C[C@H](O)[C@@H]1O"
  AC50: "0.182 µM (active)"
- MOLECULE: "CCOC(=O)[C@@H](C)Oc1ccc(Oc2nc3ccc(Cl)cc3o2)cc1"
  AC50: "inactive"
- MOLECULE: "CC(C)C[C@H](NC(=O)OCC1c2ccccc2-c2ccccc21)C(=O)O"
  AC50: "inactive"
- MOLECULE: "O=C(O)CCCCCCCCC(=O)O"
  AC50: "inactive"

* * *

ASSAY NOTES: BSK_SAg_SRB: Viability Assessment in the BioMAP Diversity Plus: SAg Assay (AID 2283096);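 also: cells read one day after compound addition; hits may be either gain or loss of signal compared with DMSO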
PARTICULARS: primary human HUVEC with PBMC
The source made the active and inactive calls. The calls were made as follows: active = hit-call score of the fitted dose curve at least 0.9, where 1 is the maximum; inactive = score below 0.9.
Outcomes: 1 (active), -1 (inactive)

- MOLECULE: "c1ccc(CCc2ccccc2)cc1"
  CATEGORY LABEL: 1
- MOLECULE: "CN(c1nccc(=O)[nH]1)C1CCN(c2nc3ccccc3n2Cc2ccc(F)cc2)CC1"
  CATEGORY LABEL: -1
- MOLECULE: "CC1(C)C2=CCCC(C)(C)[C@]23CC[C@H]1C3"
  CATEGORY LABEL: -1
- MOLECULE: "CC(=O)c1c(C)c([N+](=O)[O-])c(C(C)(C)C)c([N+](=O)[O-])c1C"
  CATEGORY LABEL: -1
- MOLECULE: "CCC(C)c1cc([N+](=O)[O-])cc([N+](=O)[O-])c1OC(=O)OC(C)C (stereo unspecified)"
  CATEGORY LABEL: 1
- MOLECULE: "C=C(C)C(=O)OCC(CC)(COC(=O)C(=C)C)COC(=O)C(=C)C"
  CATEGORY LABEL: -1
- MOLECULE: "C=CC(C)(O)CCC=C(C)C (stereo unspecified)"
  CATEGORY LABEL: -1
- MOLECULE: "Clc1cc(Cl)c(-c2c(Cl)c(Cl)cc(Cl)c2Cl)cc1Cl"
  CATEGORY LABEL: -1
- MOLECULE: "COc1cc(Cl)c(OC)cc1N"
  CATEGORY LABEL: -1
- MOLECULE: "CC1(C)CCC[C@]2(C)[C@H]3CCO[C@]3(C)CC[C@@H]12"
  CATEGORY LABEL: -1
- MOLECULE: "COc1ccc(OC)c(N=Nc2c(O)ccc3ccccc23)c1"
  CATEGORY LABEL: -1
- MOLECULE: "c1ccc2cc(Nc3ccc(Nc4ccc5ccccc5c4)cc3)ccc2c1"
  CATEGORY LABEL: -1
- MOLECULE: "CC(=O)C1(C)CC2=C(CCCC2(C)C)CC1C (stereo unspecified)"
  CATEGORY LABEL: 1
- MOLECULE: "C=C(C)[C@H]1CC=C(C)C(=O)C1"
  CATEGORY LABEL: -1
- MOLECULE: "CSCCC=O"
  CATEGORY LABEL: -1
- MOLECULE: "C[C@@H]1CCN(C(=O)[C@H](CCCN=C(N)N)NS(=O)(=O)c2cccc3c2NC[C@H](C)C3)[C@@H](C(=O)O)C1"
  CATEGORY LABEL: -1

* * *

Read-out: Macrophage colony-stimulating factor (MCSF), CSF1 (gene 1435)
ASSAY NOTES: BSK_LPS_MCSF: BioMAP Diversity Plus: LPS Assay for Macrophage colony-stimulating factor (MCSF) Biomarker Activity (AID 2283083)
PARTICULARS: primary human HUVEC with PBMC; actives raise or lower the signal
Activity calls are given as the source filed them. Rule for the calls: active = hit-call score of the fitted dose curve at least 0.9, where 1 is the maximum; inactive = score below 0.9.
Outcome codes: true for active, false for inactive

- STRUCTURE SMILES STRING: "C=C(C)C(=O)OCCOCCOCCOC(=O)C(=C)C"
  CATEGORY LABEL: "false"
- STRUCTURE SMILES STRING: "Cc1cc(CCC(=O)OCCOCCOCCOC(=O)CCc2cc(C)c(O)c(C(C)(C)C)c2)cc(C(C)(C)C)c1O"
  CATEGORY LABEL: "false"
- STRUCTURE SMILES STRING: "C=C(C)C(=O)OCCOCCOCCOCCOC(=O)C(=C)C"
  CATEGORY LABEL: "false"
- STRUCTURE SMILES STRING: "O=C1c2ccccc2C(=O)c2c(O)ccc(O)c21"
  CATEGORY LABEL: "false"
- STRUCTURE SMILES STRING: "CC(C)(C)CC(C)(C)c1ccc(OCCOCC[N+](C)(C)Cc2ccccc2)cc1"
  CATEGORY LABEL: "true"
- STRUCTURE SMILES STRING: "C[C@@H]1CCN(C(=O)[C@H](CCCN=C(N)N)NS(=O)(=O)c2cccc3c2NC[C@H](C)C3)[C@@H](C(=O)O)C1"
  CATEGORY LABEL: "false"
- STRUCTURE SMILES STRING: "Oc1c(Cl)cc(Cl)c(Cl)c1Cc1c(O)c(Cl)cc(Cl)c1Cl"
  CATEGORY LABEL: "true"
- STRUCTURE SMILES STRING: "CSCCC=O"
  CATEGORY LABEL: "false"
- STRUCTURE SMILES STRING: "O=C1OC[C@H](Cc2cccc(O)c2)[C@H]1Cc1cccc(O)c1"
  CATEGORY LABEL: "false"
- STRUCTURE SMILES STRING: "CCOC(=O)C(C#N)=C(c1ccccc1)c1ccccc1"
  CATEGORY LABEL: "false"
- STRUCTURE SMILES STRING: "C=C(C)C(=O)OCC(CC)(COC(=O)C(=C)C)COC(=O)C(=C)C"
  CATEGORY LABEL: "false"

These data points were gathered from PubChem BioAssay (EPA / NIEHS).
